These entries and their values trace back to patent US20260209316A1.

- TARGET ENTITY: T1, full-length Sudan GP (GPFL) (Sudan virus (SUDV), UniProt Q7T9D9 33-650)
- T1 construct: also called Sudan GPFL; GP(S)FL
- T1 sequence: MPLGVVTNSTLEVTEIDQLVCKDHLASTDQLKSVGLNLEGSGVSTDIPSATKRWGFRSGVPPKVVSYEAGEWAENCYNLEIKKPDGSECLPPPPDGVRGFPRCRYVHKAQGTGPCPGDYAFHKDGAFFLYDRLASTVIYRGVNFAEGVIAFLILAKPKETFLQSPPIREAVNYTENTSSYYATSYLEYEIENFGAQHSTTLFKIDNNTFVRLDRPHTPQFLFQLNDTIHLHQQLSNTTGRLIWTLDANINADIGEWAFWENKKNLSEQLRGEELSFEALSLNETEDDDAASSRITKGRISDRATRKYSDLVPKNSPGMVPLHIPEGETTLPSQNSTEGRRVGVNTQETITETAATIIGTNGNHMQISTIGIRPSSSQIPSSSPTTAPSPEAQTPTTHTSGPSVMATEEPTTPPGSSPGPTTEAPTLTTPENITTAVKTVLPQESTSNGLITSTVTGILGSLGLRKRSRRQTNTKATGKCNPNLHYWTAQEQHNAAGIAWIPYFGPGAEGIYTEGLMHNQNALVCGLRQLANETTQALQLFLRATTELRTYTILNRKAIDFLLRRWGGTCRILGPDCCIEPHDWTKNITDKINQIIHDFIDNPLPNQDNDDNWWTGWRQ
- EXPERIMENTAL PROTOCOL: BLI, Fab, pH 5.3
ENDPOINT: kon (M⁻¹ s⁻¹)
One number for each entry, in M⁻¹ s⁻¹.

>>> quantitative_result("Fab generated from 523S (Fab, V domains shown, also called 523S Fab) VH: QVQLVQSGAELKKPGASVKVSCKASGYTFSDHYVHWVRQAPGQGLEWMGRINPNSGGTNYAQRFLGRVTMTRDASISTAYLDLSSLRSDDTAVYYCARSSSSWSGHYYYYMDVWGKGTTVTVSS VL: QSVLTQPPSVSAAPGQRVTISCSGSTSNIASNFVSWYQQLPGTAPKLLIYDNHKRPSGIPDRFSGSKSGTSATLGITGLQTGDEADYYCGTWDSSLSAGVFGGGTKVTVL")
65400

Turning to the following binder.
Value lookup for kon; key = Fab generated from 241S (Fab, V domains shown) VH: QVQLVQSGSELKKPGASVKVSCKASGYTFTSYTVNWVRQAPGQGLEWMGWINTNTGNPTYAQGFTGRFVFSSDTSVSTAYLQISDLKAEDTAMYYCARHVAYDLWSGHTVTFDHWGQGTLVTVSS VL: QSALTQPPSASGSPGQSVTISCTGTSSDVGAYNYVSWYQQHPGKAPKLIIYEVTKRPSGVPDRFSGSKSGNTASLTVSGLQAEDEADYYCSSKAGGKTYVFGTGTKVTVL
68200
